System Name: Cellular tumor antigen p53 (Homo sapiens) (UniProt P04637)
Sequence (P04637 whole entry, looked up): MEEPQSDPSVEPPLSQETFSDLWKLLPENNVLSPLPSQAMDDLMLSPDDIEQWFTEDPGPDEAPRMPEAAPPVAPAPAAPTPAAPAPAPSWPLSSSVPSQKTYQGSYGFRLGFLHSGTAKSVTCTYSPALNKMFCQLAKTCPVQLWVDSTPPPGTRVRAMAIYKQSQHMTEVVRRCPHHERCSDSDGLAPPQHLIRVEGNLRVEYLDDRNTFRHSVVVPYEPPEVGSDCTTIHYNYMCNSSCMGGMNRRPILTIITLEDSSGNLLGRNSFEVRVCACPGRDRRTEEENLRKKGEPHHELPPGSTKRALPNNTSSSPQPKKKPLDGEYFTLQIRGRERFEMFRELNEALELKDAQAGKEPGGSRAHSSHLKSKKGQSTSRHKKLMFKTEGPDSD
Experimental Details: TOX21_p53_BLA_p2_ratio: Tox21 HCT-116 p53 Agonism Beta-lactamase Assay, Ratio, Phase 2 (AID 2283592)
Records with an inconclusive call do not appear. Activity calls are given as the source filed them. The calls were made as follows: active = hit-call score of the fitted dose curve at least 0.9, where 1 is the maximum; inconclusive = response in the unintended direction; inactive = score below 0.9. *1 amine or outer side, *2 acyl side, *3 side chain or, on linkers, in order; H or OH if unused. Where a SMILES comes first, the peptide text is derived from it. Bridges are numbered along the chain shown (N, C = ends). [ ]: non-standard residue; d: D form. The star is where a group is joined. X3 = NC1=N[C@@H]([C@H](N[*:1])C(=O)[*:2])C[C@H](O)N1; ΔAla(Z-3-ureido) = NC(=O)N/C=C(\N)C(=O)O; β3hOrn = NCCC[C@H](N)CC(=O)*; Dap = NC[C@H](N)C(=O)O
Returns: one label drawn from 1 = active, -1 = inactive

// outcome(item) with item = CO[C@@H]1[C@@H](OC)[C@H](C)[C@@](O)(CC(=O)O)O[C@H]1[C@H](C)[C@H]1O[C@@]2(CC[C@@](C)([C@H]3CC[C@@](C)([C@@H]4O[C@@H]([C@H]5O[C@](C)(O)[C@H](C)C[C@@H]5C)C[C@@H]4OC4C[C@H](OC)[C@@H](OC)[C@H](C)O4)O3)O2)C[C@H](O)[C@H]1C (stereo not given in full) 1

// outcome(item) with item = O=C(N/N=C/c1ccccc1O)c1ccncc1 -1

// outcome(item) with item = CCC(C)(C)c1ccc(CC(C)CN2C[C@@H](C)O[C@@H](C)C2)cc1 (stereo not given in full) -1

// outcome(item) with item = CNC(=O)c1cc(Oc2ccc(NC(=O)Nc3ccc(Cl)c(C(F)(F)F)c3)cc2)ccn1 1

// outcome(item) with item = CCc1oc2ccccc2c1C(=O)c1cc(I)c(O)c(I)c1 1

// outcome(item) with item = CCCCC(CC)COC(=O)C(C#N)=C(c1ccccc1)c1ccccc1 (stereo not given) -1

// outcome(item) with item = O=C1C(=O)c2ncccc2-c2cccnc21 1

// outcome(item) with item = CCCCCSCCCCC -1

// outcome(item) with item = Cc1cccc2sc(N)nc12 -1

// outcome(item) with item = Clc1ccnc(Cl)n1 -1

// outcome(item) with item = CCCOc1ccc2nc(NC(=O)OC)sc2c1 1

// outcome(item) with item = OC[C@H]1O[C@@H](n2cnc3c2NC=NC[C@H]3O)C[C@@H]1O -1

// outcome(item) with item = C=C1c2c(Cl)ccc(O)c2C(O)=C2C(=O)[C@]3(O)C(O)=C(C(N)=O)C(=O)[C@@H](N(C)C)[C@@H]3[C@@H](O)[C@H]12 -1

// outcome(item) with item = Cc1ccc(C(=O)C(C)CN2CCCCC2)cc1 (stereo not given) -1

// outcome(item) with item = Nc1ccn(C2CO[C@H](CO)O2)c(=O)n1 (stereo not given in full) 1

// outcome(item) with item = Nc1cc(Cl)c([N+](=O)[O-])cc1O -1

// outcome(item) with item = C[C@]12O[C@H](C[C@]1(O)CO)n1c3ccccc3c3c4c(c5c6ccccc6n2c5c31)CNC4=O 1

// outcome(item) with item = Nc1nnc(-c2ccc([N+](=O)[O-])o2)o1 1

// outcome(item) with item = CC(C)CCC[C@@H](C)[C@H]1CC[C@H]2[C@@H]3CC=C4C[C@@H](O)CC[C@]4(C)[C@H]3CC[C@]12C -1

// outcome(item) with item = CNCCS(=O)(=O)O -1

// outcome(item) with item = [O]=[Zr] -1

// outcome(item) with item = CC(=O)Nc1c(I)c(C(=O)O)c(I)c(N(C)C(C)=O)c1I -1

// outcome(item) with item = CC=CC(=O)CC -1

// outcome(item) with item = O=S(c1cc(Cl)cc(Cl)c1O)c1cc(Cl)cc(Cl)c1O 1

// outcome(item) with item = CN(C(=O)c1c(O)c2ccccc2n(C)c1=O)c1ccccc1 -1

// outcome(item) with item = CCOC(C)(C)C -1

// outcome(item) with item = Cc1ccccc1OCC1CO1 (stereo not given) -1

// outcome(item) with item = CC1=CC(=O)CC(C)(C)C1=O -1

// outcome(item) with item = CC1c2ccccc2CN1NC(=O)c1ccc(Cl)c(S(N)(=O)=O)c1 (stereo not given) -1

// outcome(item) with item = CC(C)N=C(N)/N=C(\N)Nc1ccc(Cl)cc1 -1

// outcome(item) with item = CC(N)C12CC3CC(CC(C3)C1)C2 (stereo not given) -1

// outcome(item) with item = C/C(=C(\CCOC(=O)c1ccccc1)SS/C(CCOC(=O)c1ccccc1)=C(/C)N(C=O)Cc1cnc(C)nc1N)N(C=O)Cc1cnc(C)nc1N -1

// outcome(item) with item = NCCC[C@H](N)CC(=O)N[C@H]1CNC(=O)[C@H]([C@H]2C[C@H](O)NC(N)=N2)NC(=O)/C(=C/NC(N)=O)NC(=O)[C@H](CO)NC(=O)[C@H](CO)NC1=O (β3hOrn-[Dap]SS[ΔAla(Z-3-ureido)][X3]; lactam 1-C) -1

// outcome(item) with item = O=C(Nc1ccc(Cl)cc1)Nc1ccc(Cl)c(C(F)(F)F)c1 1

// outcome(item) with item = CCN(Cc1ccncc1)C(=O)C(CO)c1ccccc1 (stereo not given) -1

// outcome(item) with item = COc1c(N2C[C@@H]3CCCN[C@@H]3C2)c(F)cc2c(=O)c(C(=O)O)cn(C3CC3)c12 -1

// outcome(item) with item = CCCC(=O)N1CCCN(c2nc(N)c3cc(OC)c(OC)cc3n2)CC1 -1

// outcome(item) with item = NC(=O)NNc1ccccc1 -1

// outcome(item) with item = CCOC(=O)CS -1

// outcome(item) with item = Cc1nc2n(c(=O)c1CCN1CCC(c3noc4cc(F)ccc34)CC1)CCCC2 -1
